system: Carbonic anhydrase 2 (Homo sapiens, UniProt P00918)
Could you please report measured Ki for the items listed next?
Answers are plain numbers, in µM.

Worked examples follow.
NS(=O)(=O)c1cc(C(=O)N[C@@H](CO)C(=O)O)ccc1Cl ... 0.29
NS(=O)(=O)c1ccc(C(=O)N[C@@H](CO)C(=O)O)cc1 ... 0.12
CC(C)[C@H](NC(=O)c1ccc(S(N)(=O)=O)cc1)C(=O)O ... 0.074

Hi there! I need Ki for each item below, if you can.
1. CC(C)C[C@H](NC(=O)c1ccc(Cl)c(S(N)(=O)=O)c1)C(=O)NCC(=O)O
2. NS(=O)(=O)c1ccc(C(=O)NCCCC(=O)O)cc1
3. NS(=O)(=O)c1ccc(C(=O)N[C@@H](Cc2c[nH]cn2)C(=O)N[C@@H](Cc2ccccc2)C(=O)O)cc1

Completion:
1: 0.051; 2: 0.073; 3: 0.009
